test: soluble on expression in E. coli; label from the status in PepcDB or PDB records
Observed property: soluble on expression in E. coli

[[record]]
sequence = "MIPFDYERATDVDSAVATVTGDPRASFLAGGTNLVDHMKLGVARPHLLVDVSRLPLGDVVELPDGGLRIGAAVRNSDLAAHDVVRARYPMLSRALLSGASGQLRNLATTAGNLLQRTRCVYFQDVTTPCNKREPGTGCSAIGGYVRYHAILGASEHCVAVHPSDMAVAMTALDGVVVVRGADGERRIPLSEFYRLPGDRPDRDTVLAHGDLVTAVELPPPPSGNRSAYRKVRDRASFAFAVVSVAAELTIGDTSITSARVALGGVAHRPWRATLAEEVLVGSPPTEATYTEAAAAELAAAQPLPGNEFKVALTRRVLASVLRSLAEEARR"
observed_property = "soluble on expression in E. coli"
result = "soluble"

[[record]]
sequence = "THPVEAAERNYERARAELNQANEDVARNQERQAKAVQVYNSRKSELDAANKTLADAIAEIKQFNRFAHDPMAGGHRMWQMAGLKAQRAQTDVNNKQAAFDAAAKEKSDADAALSAAQERRKQKENKEKDAKDKLD"
observed_property = "soluble on expression in E. coli"
result = "soluble"

